The origin of these recorded values is patent US20240383904A1.

# measurement_target: MAGL (Homo sapiens)
# Sequence (Q99685 whole entry, species assumed): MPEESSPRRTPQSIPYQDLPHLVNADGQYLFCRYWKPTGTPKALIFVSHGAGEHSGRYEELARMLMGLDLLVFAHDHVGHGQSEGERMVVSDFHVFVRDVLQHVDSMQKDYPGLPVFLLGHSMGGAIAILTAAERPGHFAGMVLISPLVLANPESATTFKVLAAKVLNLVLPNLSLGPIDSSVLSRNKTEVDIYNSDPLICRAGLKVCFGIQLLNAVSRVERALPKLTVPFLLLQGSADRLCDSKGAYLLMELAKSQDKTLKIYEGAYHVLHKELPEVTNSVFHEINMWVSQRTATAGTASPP
# experiment_notes: 2-AG assay: MAGL inhibitory activity by hydrolysis of 2-arachidonoylglycerol to arachidonic acid, followed by mass spectrometry
# Type: biochemical
# details: 15 min preincubation, 30 min reaction at RT, 8 μM 2-arachidonoylglycerol
readout: IC50 (nM)
Supply the numeric figure in nM, leaving out any unit text.

[
  {
    "molecule": "O=C1NC2(CO1)CN(C(=O)N1CC3(CCC(Cc4cnc(C(F)(F)F)cn4)CC3)C1)C2",
    "unit_annotation": "nM",
    "test_result": 0.57
  },
  {
    "molecule": "O=C1NC2(CO1)CN(C(=O)N1CC3(CCN(S(=O)(=O)c4ccc(C(F)(F)F)cc4F)CC3)C1)C2",
    "unit_annotation": "nM",
    "test_result": 1.72
  },
  {
    "molecule": "O=C1CCC2(CN(C(=O)N3CC4(CN(Cc5cnc(C(F)(F)F)s5)C4)C3)C2)N1",
    "unit_annotation": "nM",
    "test_result": 206
  },
  {
    "molecule": "O=C1CCC2(CN(C(=O)N3CC4(CN(Cc5nc(C(F)(F)F)cs5)C4)C3)C2)N1",
    "unit_annotation": "nM",
    "test_result": 287
  },
  {
    "molecule": "O=C1NC2(CO1)CN(C(=O)N1CC3(CCC(Cc4ccc(C(F)(F)F)nc4)CC3)C1)C2",
    "unit_annotation": "nM",
    "test_result": 0.18
  }
]

Here's the next entry for you.
Can you share its IC50? I mean this molecule: `CNC(=O)c1ccccc1CN1CC2(C1)CN(C(=O)N1CC3(COC(=O)N3)C1)C2`
165
